Values from ChEMBL document CHEMBL2375319

- assay_notes: Inhibition of Mycobacterium marinum recombinant arylamine N-acetyltransferase-mediated acetyl coA hydrolysis at 30 uM by DTNB-based spectrophotometric analysis
measurement_kind: inhibition (%)

- COc1ccc(-c2cc(-c3cc(F)ccc3O)n[nH]2)cc1: 46.5
- COc1ccc(-c2cc(-c3cc(OC)ccc3OC)n[nH]2)cc1: 29.2
- COc1ccc(-c2cc(-c3cc(O)cc(O)c3)n[nH]2)cc1: 15.6
- COc1ccc(O)c(-c2cc(-c3ccc(F)cc3)[nH]n2)c1: 59.2
- Fc1ccc(F)c(-c2cc(-c3ccccc3)[nH]n2)c1: 53.5
- COc1cccc(-c2cc(-c3ccc(F)cc3)[nH]n2)c1: 61.2
- COc1ccc(-c2cc(-c3cccc(OC)c3)n[nH]2)cc1: 26.5
- COc1ccc(-c2cc(-c3cc(O)ccc3O)n[nH]2)cc1: 21.5
- Oc1ccc(F)cc1-c1cc(-c2ccc(F)cc2)[nH]n1: 32.7
